PROTOCOL_DESCRIPTION: Half life in Beagle dog at 1 mg/kg, iv
Format: ADME, organism-based, Canis lupus familiaris
Set-up: dose 1 mg/kg, route intravenous
TEST_PARAMETERS: in vivo
OBSERVED_PROPERTY: half-life (h)
Only the number, expressed in h, is required.

INPUT: Any idea what half-life was measured for `CCOc1ccn(-c2ccc(F)cc2)c(=O)c1C(=O)Nc1ccc(Oc2ccnc(N)c2Cl)c(F)c1` ?
OUTPUT: 4.9

----------
PROTOCOL_DESCRIPTION: Cmax in human GTL16 cells xenografted athymic mouse at 50 mg/kg, po
Assay type: ADME, organism-based
Set-up: dose 50 mg/kg, route oral
TEST_PARAMETERS: in vivo
OBSERVED_PROPERTY: Cmax

INPUT: Field request: Cmax | item: `CCOc1ccn(-c2ccc(F)cc2)c(=O)c1C(=O)Nc1ccc(Oc2ccnc(N)c2Cl)c(F)c1`
OUTPUT: 43.7 µM
